All values here come from paper PMC7154053.

measurementType: melting point

[ask] Give a short answer stating reported melting point for CCOC(=O)CNc1ccc2nsnc2c1[N+](=O)[O-] [compound 11726042] .
[reply] 169 to 171 °C

[ask] Give a short answer stating reported melting point for CC(C)Oc1cc(SC#N)c2nsnc2c1[N+](=O)[O-] [compound 11126010] .
[reply] 116 to 118 °C

[ask] Give a short answer stating reported melting point for N#CSc1cc(SC#N)c2nsnc2c1[N+](=O)[O-] [compound 10626056] .
[reply] 167 to 169 °C

[ask] Give a short answer stating reported melting point for CCOC(=O)C(C)Sc1ccc2nsnc2c1[N+](=O)[O-] (stereo not shown) [compound 11826110] .
[reply] 153 to 155 °C

[ask] Give a short answer stating reported melting point for O=[N+]([O-])c1c(N=C=S)ccc2nsnc12 [compound 10026149] .
[reply] 185 to 187 °C

[ask] Give a short answer stating reported melting point for CCOC(=O)CSc1c(C)cc2nsnc2c1[N+](=O)[O-] [compound 11926142] .
[reply] 181 to 183 °C

[ask] Give a short answer stating reported melting point for O=[N+]([O-])c1c(Sc2ncc[nH]2)ccc2nsnc12 [compound 11726256] .
[reply] 213 to 215 °C

[ask] Give a short answer stating reported melting point for COc1cc(SC#N)c2nsnc2c1[N+](=O)[O-] [compound 11126009] .
[reply] 143 to 145 °C

[ask] Give a short answer stating reported melting point for CCOC(=O)CSc1ccc2nsnc2c1[N+](=O)[O-] [compound 11426142] .
[reply] 172 to 174 °C

[ask] Give a short answer stating reported melting point for CN(C)C(=S)Sc1ccc2nsnc2c1[N+](=O)[O-] [compound 10126130] .
[reply] 137 to 139 °C

[ask] Give a short answer stating reported melting point for COC(=O)CS(=O)(=O)c1ccc2nsnc2c1[N+](=O)[O-] [compound 11826109] .
[reply] 123 to 125 °C

[ask] Give a short answer stating reported melting point for O=[N+]([O-])c1c(SC(=S)N2CCSCC2)ccc2nsnc12 [compound 11126015] .
[reply] 140 to 142 °C

[ask] Give a short answer stating reported melting point for COC(=O)C[S+]([O-])c1ccc2nsnc2c1[N+](=O)[O-] (stereo not shown) [compound 11726257] .
[reply] 179 to 181 °C

[ask] Give a short answer stating reported melting point for CCOC(=O)COc1ccc2nsnc2c1[N+](=O)[O-] [compound 11726041] .
[reply] 131 to 133 °C

[ask] Give a short answer stating reported melting point for O=C(O)CSc1ccc2nsnc2c1[N+](=O)[O-] [compound 11426177] .
[reply] 215 to 217 °C

[ask] Give a short answer stating reported melting point for COC(=O)CSc1cc(SCC(=O)OC)c2nsnc2c1[N+](=O)[O-] [compound 11726258] .
[reply] 141 to 143 °C

[ask] Give a short answer stating reported melting point for CCOc1cc(SC#N)c2nsnc2c1[N+](=O)[O-] [compound 11026177] .
[reply] 128 to 129 °C

[ask] Give a short answer stating reported melting point for CCCCCSc1ccc2nsnc2c1[N+](=O)[O-] [compound 10726015] .
[reply] 116 to 118 °C

[ask] Give a short answer stating reported melting point for CCOC(=O)CCSc1ccc2nsnc2c1[N+](=O)[O-] [compound 10226047] .
[reply] 89 to 91 °C
